Test: inhibitors of TNFa-induced NFkB p65 translocation, primary screen, imaging, HUVEC, MLSMR starter and 10KST1 sets (AID 438);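 also: compound added about 3h40 before a 20 min TNFalpha stimulation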
Conditions: HUVEC TNFa-induced p65 nuclear translocation; measured here: nuclei count (cytotoxicity indicator), at 2.08 µM
# cell count binned as low band = under 400, middle band = from 400 up to 500, high band = 500 and over

MOLECULE | LABEL VALUE
CCN(CC)S(=O)(=O)c1ccc(Cl)c(C(=O)OC)c1 | middle band
Cc1cccn2c(=O)c3cc(C#N)c(=NC(=O)c4cccnc4)n(CC4CCCO4)c3nc12 (stereo not drawn) | high band
CCn1nnnc1SCC(=O)N1CCOCC1 | high band
CC(=O)NC1(C(F)(F)F)NC(=O)N(CC(C)C)C1=O (stereo not drawn) | low band
Cc1cccc(C)c1NC(=O)CC(NCc1ccco1)C(=O)O (stereo not drawn) | high band
Cc1nc(-c2ccccc2)sc1C(N)=O | middle band
COc1ccc(-c2nc(CCNC(=O)c3ccco3)cs2)cc1OC | high band
O=C(CN(c1ccc(F)cc1)S(=O)(=O)c1ccc2c(c1)OCCO2)NCC1CCCO1 (stereo not drawn) | middle band
COc1ccc(-n2nc3cc(C)c(N)c(Br)c3n2)cc1 | low band
Cc1nc(SCC(=O)Nc2ccccc2C(F)(F)F)c2c(=O)n(C)c(=O)n(C)c2n1 | middle band
COc1ccc(CN2C(=O)c3cccnc3C2Nc2cc(Cl)ccc2OC)cc1 (stereo not drawn) | middle band
COc1ccc(NC(=O)N2CCC(O)(c3cccnc3)CC2)c(OC)c1 | high band
CCCCN(Cc1cc2cc(OC)ccc2[nH]c1=O)C(=O)COc1ccccc1 | low band
CCOC(=O)N1CCN(C(=O)c2ccc(CS(=O)(=O)c3ccc(OC)cc3)o2)CC1 | high band
CCC(=O)c1ccc(OCCN2CCOCC2)cc1 | low band
COc1ccccc1-n1c(SCC(N)=O)nnc1-c1ccccc1 | high band
CCOc1ccccc1N(CC(=O)N1CCCCCC1)S(C)(=O)=O | low band
C=CS(=O)(=O)c1ccc(Oc2ccc(S(=O)(=O)C=C)cc2)cc1 | low band
Cc1cc(=O)oc2cc(OCC(=O)OCC(=O)N3CCc4ccccc43)ccc12 | low band
CCOc1ccc(S(=O)(=O)Nc2cccc(Cl)c2)cc1 | low band
